Tested on: HEK-293T
experimental-details: Multiplex assay against HEK293T
Format: toxicity, cell-based
test-settings: human, 24 h, 1 µM, compound concentration 1 uM, replicate 1
property: Total Cell Count
Answer using only a numeral; do not append any unit.

Write down the reported Total Cell Count of O=C(O)c1cc2ccccc2c(Cc2c(O)c(C(=O)O)cc3ccccc23)c1O , test system: HEK-293T.
559

Write down the reported Total Cell Count of COc1ccccc1N1CCN(CCCCNC(=O)c2ccc3ccccc3c2)CC1.Cl , test system: HEK-293T.
561

Write down the reported Total Cell Count of Cc1ccc(C(C)(O)c2nc3ccccc3s2)c(C)c1 (centres undefined) , test system: HEK-293T.
645
